Where these numbers come from: the supplement of paper PMC10126150

System: ATP;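 further: ATP exposure 15 min at 22 °C before imaging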
Test: switch fluorescence ratio, 500 uM ATP over buffer (Cy3 cluster intensity, sum of 5 cycles each) (fold (ratio)); higher = stronger signal-on switching upon ATP binding; sequences stand for … in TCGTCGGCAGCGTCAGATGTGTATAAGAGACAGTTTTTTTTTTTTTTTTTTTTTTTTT…TC
Settings: aptamer strand: ATP DNA aptamer (quencher-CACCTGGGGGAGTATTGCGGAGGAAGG + anchor), 100 nM annealed; ATP concentration: 500 uM

{"columns": ["sequence-data", "target-entity", "switch fluorescence ratio"],
 "data": [
  ["CGGATGAGGC", "ATP", 1.08],
  ["GCTAAGGGGC", "ATP", 1.03],
  ["CATTGACTTT", "ATP", 1.02],
  ["CGCGACTGGT", "ATP", 0.994],
  ["AAATAGCTTT", "ATP", 0.991],
  ["AAGTAATGGG", "ATP", 0.961],
  ["CGGTCCCGGC", "ATP", 1.03],
  ["CGTACAGTGG", "ATP", 1.02],
  ["CGTGTAGGTT", "ATP", 1.02],
  ["GAGAGGACAT", "ATP", 0.996],
  ["CGATTATAGG", "ATP", 1],
  ["AGAGGGTTTT", "ATP", 0.988],
  ["ACAGGGTTAC", "ATP", 0.991],
  ["GCAAATGGTT", "ATP", 1.01],
  ["GGGAAATAGG", "ATP", 1.01],
  ["ATAATATGAG", "ATP", 0.993],
  ["AGCAGTTTTT", "ATP", 0.996],
  ["TTTCCGCGGA", "ATP", 0.97],
  ["GGCTGAGGGG", "ATP", 0.972],
  ["TTTTCGATCT", "ATP", 1],
  ["GTTTTTGGAA", "ATP", 1.05],
  ["GATGCGAAAT", "ATP", 1.06],
  ["ATGGTTAAAT", "ATP", 0.976],
  ["CGAGTTTCGG", "ATP", 1.01],
  ["CATAGGGGAG", "ATP", 1.04],
  ["CAGCTTGTTT", "ATP", 1.01],
  ["AAAAGATTTT", "ATP", 1.06],
  ["TTTTGAGCTG", "ATP", 1.02],
  ["GGTTCATCGG", "ATP", 0.991],
  ["AATTTGGGCG", "ATP", 1],
  ["TGGGACAAGC", "ATP", 0.979],
  ["ACCGTCTCAG", "ATP", 1.05],
  ["GGAAGGGTCG", "ATP", 1.04],
  ["GAGGAGGGGT", "ATP", 0.989],
  ["AGTCTGGTGC", "ATP", 1.04],
  ["GGCTGAACGT", "ATP", 1],
  ["GGATTAAATG", "ATP", 0.982],
  ["TGCAAAGGGC", "ATP", 1.01],
  ["ACGGGGGGTG", "ATP", 1.01],
  ["TTTAATTAGG", "ATP", 1.03],
  ["TCATAGTCGG", "ATP", 1],
  ["GGGTCAAAGA", "ATP", 0.971],
  ["AAAAAGATTG", "ATP", 1.06]
]}
